The reported numbers originate from ChEMBL document CHEMBL6120993.

Test: Inhibition of porcine sodium/potassium-ATPase incubated for 20 mins by Spectrophotometric analysis
Design: species or system Sus scrofa domesticus
# key: entry, value: IC50

>  <compound smiles>
C[C@@H]1C[C@@H](O[C@@H]2O[C@H](CO)[C@@H](O)[C@H](O)[C@H]2O)[C@]2(O)O[C@@H]3C[C@@]4(C)[C@@H](C[C@@H]5O[C@]56[C@@H]4[C@H](O)[C@H](O)[C@]4(C)[C@@H](C5=CC(=O)OC5)CC[C@@]46O)C[C@H]3O[C@@H]2O1

>  <measurement unit>
nM

>  <IC50>
2200

$$$$
>  <compound smiles>
C[C@@H]1C[C@@H](O[C@@H]2O[C@H](CO)[C@@H](O)[C@H](O)[C@H]2O)[C@]2(O)O[C@@H]3C[C@@]4(C)[C@@H](C[C@@H]5O[C@]56[C@@H]4[C@H](O)C(=O)[C@]4(C)[C@@H](C5=CC(=O)OC5)CC[C@]64O)C[C@H]3O[C@@H]2O1

>  <measurement unit>
nM

>  <IC50>
900

$$$$
>  <compound smiles>
C[C@@H]1C[C@@]2(N=CCS2)[C@]2(O)O[C@@H]3C[C@@]4(C)[C@@H](C[C@@H]5O[C@]56[C@@H]4[C@H](O)C(=O)[C@]4(C)[C@@H](C5=CC(=O)OC5)CC[C@]64O)C[C@H]3O[C@@H]2O1

>  <measurement unit>
nM

>  <IC50>
900

$$$$
>  <compound smiles>
C[C@H]1O[C@@H](O[C@H]2CC[C@@]3(C)[C@H](C2)C[C@@H]2O[C@]24[C@@H]3C[C@@H](O)[C@]2(C)[C@@H](C3=CC(=O)OC3)CC[C@@]24O)[C@H](O)[C@H](O)[C@@H]1O[C@@H]1O[C@H](CO)[C@@H](O)[C@H](O)[C@H]1O

>  <measurement unit>
nM

>  <IC50>
1400

$$$$
>  <compound smiles>
C[C@H]1O[C@@H](O[C@H]2CC[C@@]3(C)[C@@H](CC[C@@H]4[C@@H]3C[C@@H](O)[C@]3(C)[C@@H](C5=CC(=O)OC5)CC[C@]43O)C2)[C@H](O)[C@H](O)[C@@H]1O[C@@H]1O[C@H](CO)[C@@H](O)[C@H](O)[C@H]1O

>  <measurement unit>
nM

>  <IC50>
1100

$$$$
>  <compound smiles>
C[C@@H]1O[C@@H](O[C@H]2C[C@@H](O)[C@]3(CO)[C@H]4[C@H](O)C[C@]5(C)[C@@H](C6=CC(=O)OC6)CC[C@]5(O)[C@@H]4CC[C@]3(O)C2)[C@H](O)[C@H](O)[C@H]1O

>  <measurement unit>
nM

>  <IC50>
700

$$$$
>  <compound smiles>
C[C@H]1O[C@@H](O[C@H]2CC[C@@]3(C)[C@H](C2)C[C@@H]2O[C@]24[C@@H]3CC[C@]2(C)[C@@H](C3=CC(=O)OC3)CC[C@]42O)[C@H](O)[C@H](O)[C@@H]1O[C@@H]1O[C@H](CO)[C@@H](O)[C@H](O)[C@H]1O

>  <measurement unit>
nM

>  <IC50>
1100

$$$$
>  <compound smiles>
C[C@H]1O[C@@H](O[C@H]2CC[C@@]3(C)[C@H](C2)C[C@@H]2O[C@]24[C@@H]3C[C@@H](O)[C@]2(C)[C@@H](C3=CC(=O)OC3)CC[C@@]24O)[C@H](O)[C@H](O)[C@@H]1O

>  <measurement unit>
nM

>  <IC50>
1400

$$$$
